- Test system: HOP-62 NSCLC
- Assay Summary: NCI tumour cell line growth inhibition, 48 h
Consider the following compounds; for each one, report its TGI.

Query: TGI; subject: CN(C)CCC(/C=C/c1ccccc1)=N\Nc1c(F)c(F)c(F)c(F)c1F
> 100 µM

Query: TGI; subject: c1csc(-c2cc(-c3ccsc3)cs2)c1
> 100 µM

Query: TGI; subject: Cc1cc2nc3c(C(OC4OC(CO)C(O)C(O)C4O)C(O)CO)nn(-c4ccc(F)cc4)c3nc2cc1C (stereo not given)
> 100 µM

Query: TGI; subject: COc1cc(-c2cc(OC)c(OC)c3ccc(Br)cc23)c2cc(Br)ccc2c1OC
44.7 µM

Query: TGI; subject: COc1ccc2c(c1)CCC1C2CCC2(C)C(NC(=O)CCCCC3CCSS3)CCC12 (stereo not given)
> 100 µM

Query: TGI; subject: CCOC(=O)CC1(N)CC2c3ccccc3OC(=O)C2C(=O)N1 (stereo not given)
> 100 µM

Query: TGI; subject: COC1=C(OC)C(=O)C(Cc2c(-c3ccccc3)nc3sc(Cl)cn23)=C(C)C1=O
38.2 µM

Query: TGI; subject: Cc1c(-c2ccccc2)oc(=O)c2ccccc12
43.5 µM

Query: TGI; subject: Cc1ccc(/C=C2\CCCC(C(NO)c3ccc(C)cc3)C2=NO)cc1 (stereo not given)
> 100 µM

Query: TGI; subject: COc1ccc(/C=C2\N=C3N(Cc4ccccc4)C=C(N)N3C2=O)cc1
> 100 µM

---

- Tested on: 786-0 renal
- Assay Summary: NCI tumour cell line growth inhibition, 48 h
Outcome Measure: TGI

Query: TGI; subject: COc1cc(OC)c(OC)cc1/C=C\c1ccnc2ccccc12
61.6 µM

Query: TGI; subject: CC(C)C(Nc1c2ccccc2[n+](C)c2ccccc12)C(=O)O (stereo not given)
> 100 µM

Query: TGI; subject: COc1ccc(S(=O)(=O)NNS(C)(=O)=O)cc1OC
> 100 µM

Query: TGI; subject: COc1ccc(C2=NOC3=c4ccccc4=CSC3=C2c2ccccc2)cc1
> 100 µM

Query: TGI; subject: CC(=O)Nc1ccc2c(c1)[nH]c(=O)c1cc(Cl)ccc12
> 100 µM

Query: TGI; subject: O=[N+]([O-])C(/C=C(\Cl)[N+](=O)[O-])=C(Nc1ccccc1)Nc1ccccc1
14.3 µM

Query: TGI; subject: CC1=NN(c2cc(Cl)c(S(=O)(=O)O)cc2Cl)C2(C1)C(Cl)C(=O)N2c1nc2ccccc2s1 (stereo not given)
> 100 µM

Query: TGI; subject: COc1cc([C@H]2c3cc4c(cc3[C@H](NCc3ccc(F)cc3)C3COC(=O)[C@H]32)OCO4)cc(OC)c1O (stereo not given in full)
5.48 µM

Query: TGI; subject: CCn1c(-c2cc3ccccc3cc2OC(C)=O)n[nH]c1=S
> 100 µM

Query: TGI; subject: CCOc1ccc(N=Nc2c(-c3ccccc3)nn(C(=O)CC(=O)Nc3ccccc3Cl)c2-c2ccccc2)cc1
> 100 µM

---

- System: COLO 205 colon
- Assay Summary: NCI tumour cell line growth inhibition, 48 h
Consider the following compounds; for each one, report its GI50.

Query: GI50; subject: COc1ccc(C2CC(c3cccc(Nc4ccncc4)c3)=NN2c2ccccc2)cc1 (stereo not drawn)
2.66 µM

Query: GI50; subject: CCCCCCC1CCCCN1C(c1ccccc1)C(O)c1ccccc1 (stereo not drawn)
3.09 µM

Query: GI50; subject: Oc1ccccc1/C=N/c1nc(-c2ccccc2)cs1
57.7 µM

Query: GI50; subject: O=C(Cc1csc2nc(-c3ccc(Br)cc3)cn12)N/N=C/c1ccccc1O
5.08 µM

Query: GI50; subject: O=C(Nc1ccc(-n2cc(-c3ccncc3)c(-c3ccc(Cl)c(O)c3)n2)cc1)c1ccc(Cl)c(Cl)c1
4.3 µM

Query: GI50; subject: O=[N+]([O-])/C(=C/C=C/c1ccccc1)c1ccccc1
1.83 µM

Query: GI50; subject: COc1ccc2c(c1)CCC1C2CCC2(C)C(NC(=O)CCCCC3CCSS3)CCC12 (stereo not drawn)
5.49 µM

Query: GI50; subject: COc1cc(C(=O)/C=C/c2c(C)n([O-])c3ccc(Cl)cc3[n+]2=O)cc(OC)c1OC
1.53 µM

Values compiled from PubChem BioAssay (NCI).
